Experiment: NCI Yeast Anticancer Drug Screen. Data for the mlh1 rad18 strain (AID 175)
Details: S. cerevisiae mlh1 rad18 strain growth inhibition; at 50.0 µM; hits give high values
This is part of a sample that, as a whole, favours compounds with a hit. Of some 79,000 tested, about 15% had one in any assay.
Give measured growth inhibition for each item. Keep answers brief.
Answers are plain numbers, in %.

Count: 4. Required value per item: growth inhibition.
1. Cc1ccc(SCc2ccccc2Cl)nn1
2. C/C(=N/NC(=S)Nc1ccc(C)cc1)c1ccccn1
3. COc1ccc(C(C)=O)c(OC(=O)c2ccccc2)c1OC(=O)c1ccccc1
4. CCC1=C(C)/C(=C/c2[nH]c(C(Br)Br)c(CC)c2C)N=C1C(Br)Br

Resp:
[4.75, 87.9, -0.9, 45.6]

---

Assay: NCI Yeast Anticancer Drug Screen. Data for the cln2 rad14 strain (AID 165);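 also: 0% = growth equal to vehicle treated cultures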
Settings: S. cerevisiae cln2 rad14 strain, at 5.0 µM (retest, dose inferred, filed as 0.5), hits give high values
The panel holds about 79,000 compounds, 15% with a hit somewhere; the sample as a whole holds those more often.
Give measured growth inhibition for each item. Keep answers brief.
Numbers only, in %.

Some solved cases for reference:
O=C1C=C(c2ccccc2)OC1(Nc1ccccc1)c1ccccc1 (stereo unspecified) ... 9
Clc1ccc2nc3ccccc3nc2c1 ... -9
CC(=O)c1ccc([N+](=O)[O-])o1 ... 0
Cc1ccc(C(Cl)(c2ccc(C)cc2)c2ccc(C)cc2)cc1 ... -2
O=C1CSC(c2c[nH]c3ccccc23)N1c1cccc(Cl)c1 (stereo unspecified) ... 6
CC(C)SC(=S)Nc1cc(Cl)c(Cl)cc1Cl ... -14
CC1=C(C(=O)Nc2cccc(Cl)c2)C(c2ccccc2F)C(C(=O)Nc2cccc(Cl)c2)=C(C)N1 ... 36
CCCCCCCCNS(=O)(=O)c1ccc(N)cc1 ... 2
CCCCNCc1c(O)ccc2ccccc12 ... 10
CCCCCCCCCCCC[S+](C)C ... 17

Count: 5. Required value per item: growth inhibition.
1. CN1C(=O)CCCCCCCCCCSc2ccccc21
2. O=C(NCc1ccccc1)N1CCN(c2ccccc2)C1=O
3. COc1cc(C2c3cc4c(cc3[C@@H](Nc3cccc(O)c3)C3COC(=O)[C@H]23)OCO4)cc(OC)c1O (stereo partly specified)
4. C/C(=N\Nc1n[nH]c(=S)n1N)c1c(O)cc(C)oc1=O
5. COc1cc2c(c(OC)c1OC)-c1ccc(=O)c(OC)cc1[C@@H](N)CC2

Resp:
[7, -4, 33, -2, 24]

Count: 6. Required value per item: growth inhibition.
1. O=C(O)C(Cc1cc(I)c(O)c(I)c1)C1CCCCC1 (stereo unspecified)
2. COc1ccc(C2=C/C(=C3\C(=O)Oc4ccccc4C3=O)SS2)cc1
3. C=C1CC(Cn2cc(Br)c(=O)[nH]c2=O)(c2ccc(Br)cc2)OC1=O (stereo unspecified)
4. c1ccc([P+](Cc2ccc(C[P+](c3ccccc3)(c3ccccc3)c3ccccc3)s2)(c2ccccc2)c2ccccc2)cc1
5. O=C1c2ccc3c4ccccc4n(Cc4ccccc4)c3c2C(=O)N1c1ccccc1
6. CCC(C)(O)C#Cc1ccc(C)nc1 (stereo unspecified)

Resp:
1: 7; 2: 1; 3: 19; 4: 17; 5: 75; 6: 0

Count: 7. Required value per item: growth inhibition.
1. NC(=S)NNc1c([N+](=O)[O-])cnn(-c2ccccc2)c1=O
2. CCS/C(SC)=C(/c1ccccc1)[P+](c1ccccc1)(c1ccccc1)c1ccccc1
3. CC(C)OP(=O)(OC(C)C)/C(I)=N/Nc1ccc([N+](=O)[O-])cc1
4. Cc1ccc2nc(CC(=O)c3cccnc3)c(CC(=O)c3cccnc3)nc2c1
5. COc1ccccc1NC(=O)CC(=O)N1N=C(c2ccccc2)C(N=Nc2ccc(Cl)cc2)C1=O (stereo unspecified)
6. O[C@H](CNCCS)[C@@H](O)CNCCS
7. CCCC#CCCOC(=O)c1cc([N+](=O)[O-])cc([N+](=O)[O-])c1

Resp:
-9
98
-14
14
12
17
-7

Count: 3. Required value per item: growth inhibition.
1. O=C(Oc1ccccc1)c1ccc2ccccc2c1O
2. COc1ccccc1NC(=O)C1=CNC(C)=C(C(=O)Nc2ccccc2OC)C1/C=C/c1ccccc1 (stereo unspecified)
3. CC/C=C(\C)CC(C)O (stereo unspecified)

Resp:
1. -2
2. -1
3. 1

---

Assay: NCI Yeast Anticancer Drug Screen. Data for the sgs1 mgt1 strain (AID 161);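 also: 0% = growth of cultures given vehicle only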
Conditions: S. cerevisiae sgs1 mgt1 strain, at 50.0 µM (retest, dose inferred, filed as 5.0), hits give high values
Compounds without any hit were thinned out: in the full panel of roughly 79,000, 15% have a hit. Active and inactive are the calls of the source. No stated cut-off is given here; in the data, active means growth inhibition above about 70%; inactive means the rest.
PROPERTY MEASURED: growth inhibition

Some solved cases for reference:
NCCCC(=O)NC(Cc1cnc[nH]1)C(=O)O (configuration not stated) ... -11% (inactive)
COc1cc(O)c2c(=O)c3cccc(C)c3[nH]c2c1 ... 41% (inactive)

Count: 4. Required value per item: growth inhibition.
1. COc1ccc(CCCCI)cc1
2. CN(C)C(=O)c1cc(Cl)cc(-c2ccccc2)c1O
3. Cc1cc(C(=O)O)c(C)c2c1sc1ccccc12
4. N#C/C(=C1C=C/C(=N/O)c2ccccc2/1)c1ccc(Cl)cc1

Resp:
97% (active)
68% (inactive)
82% (active)
1% (inactive)

---

Test: NCI Yeast Anticancer Drug Screen. Data for the mec2-1 strain (AID 157)
Conditions: S. cerevisiae mec2-1 strain, at 50.0 µM
This is part of a sample that, as a whole, favours compounds with a hit. Of some 79,000 tested, about 15% had one in any assay. Active and inactive are the calls of the source. No stated cut-off is given here; in the data, active means growth inhibition above about 70%; inactive means the rest.
Hi! Could you answer with just one of these? T = active, F = inactive

CCOc1ccccc1C(=O)OCc1ccccc1 ... F
CC(C)=CCc1c(O)cc(O)c2c1OC(c1ccc(O)cc1)C(O)C2=O (centres undefined) ... T

Req: Recorded test call requested for "COC(=O)CCC(=O)N1C/C(=C\c2ccccc2)C(=O)/C(=C/c2ccccc2)C1"
Resp: T

Req: What would you report for "CCCCN1CSC(=S)N(Cc2ccccc2)C1" ?
Resp: F

---

Assay: NCI Yeast Anticancer Drug Screen. Data for the mec2-1 strain (AID 157)
Conditions: S. cerevisiae mec2-1 strain, at 5.0 µM (retest, dose inferred, filed as 0.5), hits give high values
The panel holds about 79,000 compounds, 15% with a hit somewhere; the sample as a whole holds those more often. Active and inactive are the calls of the source. Rule as the data show it: active = growth inhibition above about 70%; inactive = the rest.
Give measured growth inhibition for each item. Keep answers brief.

Some solved cases for reference:
Nc1ccccc1C(=O)NCCc1c[nH]c2ccccc12 ... -3% (inactive)
CC(C)(C)c1cc(Cl)c(O)c(Cc2cc(C(C)(C)C)cc(Cl)c2O)c1 ... 36% (inactive)
COc1cc([C@H]2c3c(cc(OC)c(OC)c3OC)CC3COC(=O)[C@@H]32)cc2c1OCO2 (stereo partly drawn) ... 2% (inactive)
O=C1OC(C2OC(=O)C(=O)C2C(=O)c2ccc([N+](=O)[O-])cc2)C(C(=O)c2ccc([N+](=O)[O-])cc2)C1=O (stereo not drawn) ... 14% (inactive)
Cc1cccc2c1nc1ccccc1[n+]2C ... 7% (inactive)

Count: 5. Required value per item: growth inhibition.
1. O=C1CCCC1CN1CCOCC1 (stereo not drawn)
2. NC(=O)NOCC1NC(=O)NC1=O (stereo not drawn)
3. CCCCCCCCCCCC(=O)OC/C=C/COC(=O)c1ccccc1
4. O=C(O)c1ccccc1C(=O)c1ccc2c(c1)Cc1ccccc1-2
5. Cc1ncn(-c2ccccc2O)c1C

Resp:
["-21% (inactive)", "-10% (inactive)", "-3% (inactive)", "-3% (inactive)", "-8% (inactive)"]

Count: 8. Required value per item: growth inhibition.
1. N#CC(NNC(=O)c1ccccc1O)c1c(O)ccc2ccccc12 (stereo not drawn)
2. CCOc1ccc2nc(Cl)sc2c1
3. S=c1[nH]c2cc(Cl)ccc2s1.[Zn+2]
4. CC(C)SC(=S)Nc1cc(C(F)(F)F)ccc1Cl
5. C=C1C(=O)O[C@@H]2C[C@]3(C)CC[C@]4(C)[C@H](CC[C@@H]5[C@@]6(C)CCC(=O)C(C)(C)[C@@H]6CC[C@]54C)[C@H]3[C@H]12
6. O=C(CSCc1c(F)cccc1Cl)Nc1ccc(F)c(Cl)c1
7. CCCCCCCCN1C(=O)c2ccccc2S1(=O)=O
8. CC[C@@]1(O)C[C@H](OC2CC(N(C)C)C(OC3CC(O)C(OC4CCC(=O)C(C)O4)C(C)O3)C(C)O2)c2c(cc3c(c2O)C(=O)c2c(O)cccc2C3=O)[C@H]1C(=O)OC (stereo partly drawn)

Resp:
22% (inactive)
-7% (inactive)
8% (inactive)
2% (inactive)
18% (inactive)
34% (inactive)
-4% (inactive)
98% (active)

---

Experiment: NCI Yeast Anticancer Drug Screen. Data for the mec2-1 strain (AID 157)
Settings: S. cerevisiae mec2-1 strain, at 50.0 µM (retest, dose inferred, filed as 5.0)
This is part of a sample that, as a whole, favours compounds with a hit. Of some 79,000 tested, about 15% had one in any assay. The source made the active and inactive calls. Rule as the data show it: active = growth inhibition above about 70%; inactive = the rest.
Hi! Could you answer with just one of these? active, inactive

Observe how each entry below is paired with its result.
CC(=O)N(C)NC(=O)c1ccccc1 ... inactive
COC(=O)c1nc(N)nc(C(=O)OC)c1C(=O)c1ccccc1 ... inactive

Req: Recorded test call requested for "C=CC1(c2ccc(-c3ccccc3)cc2)OCCO1"
Resp: inactive

Req: What would you report for N#CC(Nc1cccc(C(F)(F)F)c1)c1ccccc1C(F)(F)F (configuration not stated) ?
Resp: active

Req: What would you report for OC(C1CCCC1=N/N=C1/CCCC1C(O)(C(F)(F)Cl)C(F)(F)Cl)(C(F)(F)Cl)C(F)(F)Cl (configuration not stated) ?
Resp: inactive

Req: What would you report for "C(CCCCCN1CCCCC1)CCCCN1CCCCC1" ?
Resp: inactive

Req: What would you report for "OC/C(=C\c1ccccc1Br)c1ccccc1Br" ?
Resp: active

Req: What would you report for "S=C1C(=Nc2ccccc2)N(c2ccccc2)/C(=N\c2cccc[n+]2Cc2ccccc2)N1c1ccccc1" ?
Resp: active

Req: What would you report for "COc1ccc(S)cc1" ?
Resp: inactive

Data origin: PubChem BioAssay (NCI)
